System: NOMO1
Assay: cell viability relative to DMSO control; higher = less cytotoxic
Details: HPLM + 10% dialyzed FBS; 48 h; 0.0211 µM
REPORTED ENDPOINT: cell viability
Answer format: number, then unit.

Worked examples, 4 compounds total:
# SMILES REPRESENTATION, cell viability
rows = [
    ("CC(/C=C/C(=O)NO)=C\\[C@@H](C)C(=O)c1ccc(N(C)C)cc1", "104%"),
    ("O=C(Cc1ccc(-c2ccc(OCCN3CCOCC3)cc2)cn1)NCc1ccccc1", "111%"),
    ("CCCCCCCCCC(=O)N[C@@H](Cc1c[nH]c2ccccc12)C(=O)N[C@H](CC(N)=O)C(=O)N[C@@H](CC(=O)O)C(=O)N[C@@H]1C(=O)NCC(=O)N[C@@H](CCCN)C(=O)N[C@@H](CC(=O)O)C(=O)N[C@H](C)C(=O)N[C@@H](CC(=O)O)C(=O)NCC(=O)N[C@H](CO)C(=O)N[C@@H]([C@@H](C)CC(=O)O)C(=O)N[C@@H](CC(=O)c2ccccc2N)C(=O)O[C@@H]1C", "132%"),
    ("ClC1=CC\\2=C(NC(=O)\\C(=C2N[C@@H]3CN4CCC3CC4)C5=NC6=C([NH]5)C=CC=C6)C=C1", "123%"),
]

Prompt: Request the reported cell viability associated with `COc1cc([C@H]2Oc3cc([C@H]4Oc5cc(O)cc(O)c5C(=O)[C@@H]4O)ccc3O[C@@H]2CO)ccc1O`
Completion: 126%
